assay: HEK WC Assay: Human embryonic kidney cells (HEK293), endogenously expressing soluble guanylate cyclase (sGC), were used to evaluate the activity of test compounds. Compounds stimulating the sGC receptor should cause an increase in the intracellular concentration of cGMP. HEK 293 cells were seeded in Dulbecco's Modification of Eagle's Medium supplemented with fetal bovine serum (10% final) and L-glutamine (2 mM final) in a 200 μL volume at a density of 1×10^5 cells/well in a poly-D-lysine coated 96 well flat bottom plate and grown overnight at 37° C. Medium was aspirated and cells were washed with 1× Hank's Buffered Saline Salt Solution (200 μL). Cells were then incubated for 15 minutes at 37° C. with 0.5 mM 3-isobutyl-1-methylxanthine (200 μL). Test article and sodium nitroprusside were then added to the assay mixture (2 μL each) and incubated at 37° C. for 10 minutes. After the 10 minute incubation, the assay mixture was aspirated and 0.1M HCl (200 μL) was added to the cells. The plate was incubated at 4° C. for 30 minutes in the 0.1M HCl to stop the reaction and lysed the cells. The plates were then centrifuged at 1,200 g for 5 minutes at room temperature. Supernatants were collected and transferred to a new flat bottom 96 well plate for analysis. Vehicle controls were carried out using DMSO (1%). A known sGC stimulator, BAY 41-2272, was used as the positive control. Samples were diluted with an equal volume of 1 M Ammonium Acetate (pH 7) to neutralize samples for better chromatography. A 2×cGMP standard curve was prepared in 0.1 M HCl and then diluted with an equal volume of 1 M Ammonium Acetate, with the following final concentrations in nM: 1024, 512, 256, 128, 64, 32, 16, 8, 4, 2, 1. cGMP concentrations were determined from each sample using the LC/MS conditions (Table 2 below) and calculated standard curve. EC50 values were calculated from concentration-response curves generated with GraphPad Prism Software.; type: cell-based
READOUT KIND: EC50

[[record]]
compound = "[C-]#[N+]c1cc(-c2ccccn2)nn1Cc1ccccc1F"
readout_kind = "EC50"
observed_result = "30 µM"

[[record]]
compound = "COc1ccc(C(=O)Nc2cnc(-c3cc(-c4ccon4)n(Cc4ccccc4F)n3)nc2N)cc1"
readout_kind = "EC50"
observed_result = "< 20 µM"

[[record]]
compound = "CCOC(=O)c1cnc(-c2cc(-c3ccon3)n(Cc3ccccc3F)n2)nc1O"
readout_kind = "EC50"
observed_result = "20 to 40 µM"

[[record]]
compound = "CC(C)(F)C(=O)Nc1cnc(-c2cc(-c3ccon3)n(Cc3ccccc3F)n2)nc1N"
readout_kind = "EC50"
observed_result = "< 20 µM"

[[record]]
compound = "Nc1nc(-c2cc(-c3ncco3)n(Cc3ccccc3F)n2)ncc1NC(=O)C1(C(F)(F)F)CC1"
readout_kind = "EC50"
observed_result = "< 20 µM"


Attention now turns to another entry.
Lab note: Nc1nc(-c2cc(-c3ccon3)n(Cc3ccccc3F)n2)ncc1NC(=O)c1cccc(OC(F)(F)F)c1 gave EC50 of < 20 µM

###

Overview of recorded EC50 for various compounds
test: HEK WC Assay: Human embryonic kidney cells (HEK293), endogenously expressing soluble guanylate cyclase (sGC), were used to evaluate the activity of test compounds. Compounds stimulating the sGC receptor should cause an increase in the intracellular concentration of cGMP. HEK 293 cells were seeded in Dulbecco's Modification of Eagle's Medium supplemented with fetal bovine serum (10% final) and L-glutamine (2 mM final) in a 200 μL volume at a density of 1×10^5 cells/well in a poly-D-lysine coated 96 well flat bottom plate and grown overnight at 37° C. Medium was aspirated and cells were washed with 1× Hank's Buffered Saline Salt Solution (200 μL). Cells were then incubated for 15 minutes at 37° C. with 0.5 mM 3-isobutyl-1-methylxanthine (200 μL). Test article and sodium nitroprusside were then added to the assay mixture (2 μL each) and incubated at 37° C. for 10 minutes. After the 10 minute incubation, the assay mixture was aspirated and 0.1M HCl (200 μL) was added to the cells. The plate was incubated at 4° C. for 30 minutes in the 0.1M HCl to stop the reaction and lysed the cells. The plates were then centrifuged at 1,200 g for 5 minutes at room temperature. Supernatants were collected and transferred to a new flat bottom 96 well plate for analysis. Vehicle controls were carried out using DMSO (1%). A known sGC stimulator, BAY 41-2272, was used as the positive control. Samples were diluted with an equal volume of 1 M Ammonium Acetate (pH 7) to neutralize samples for better chromatography. A 2×cGMP standard curve was prepared in 0.1 M HCl and then diluted with an equal volume of 1 M Ammonium Acetate, with the following final concentrations in nM: 1024, 512, 256, 128, 64, 32, 16, 8, 4, 2, 1. cGMP concentrations were determined from each sample using the LC/MS conditions (Table 2 below) and calculated standard curve. EC50 values were calculated from concentration-response curves generated with GraphPad Prism Software.; type: cell-based

[[record]]
compound = "CN(C)c1ccccc1C(=O)Nc1cnc(-c2cc(-c3ccon3)n(Cc3ccccc3F)n2)nc1N"
observed_result = "40 to 60 µM"


Per the record, Nc1nc(-c2cc(-c3ccon3)n(Cc3ccccc3F)n2)ncc1NC(=O)C1CC2C=CC1C2 (stereo not given) has EC50 of < 20 µM

Recorded EC50 (compound Cc1cccc(C)c1C(=O)Nc1cnc(-c2cc(-c3ccon3)n(Cc3ccccc3F)n2)nc1N ): < 20 µM

Input [C-]#[N+]C1(C(=O)Nc2cnc(-c3cc(-c4ccon4)n(Cc4ccccc4F)n3)nc2N)CC1 . Output EC50: < 20 µM

For reference, reported EC50 for Nc1nc(-c2cc(-c3ccon3)n(Cc3ccccc3F)n2)ncc1NC(=O)c1cscn1 stands at < 20 µM
